- tgt: UniProtKB P22455
- Sequence (P22455 22-802): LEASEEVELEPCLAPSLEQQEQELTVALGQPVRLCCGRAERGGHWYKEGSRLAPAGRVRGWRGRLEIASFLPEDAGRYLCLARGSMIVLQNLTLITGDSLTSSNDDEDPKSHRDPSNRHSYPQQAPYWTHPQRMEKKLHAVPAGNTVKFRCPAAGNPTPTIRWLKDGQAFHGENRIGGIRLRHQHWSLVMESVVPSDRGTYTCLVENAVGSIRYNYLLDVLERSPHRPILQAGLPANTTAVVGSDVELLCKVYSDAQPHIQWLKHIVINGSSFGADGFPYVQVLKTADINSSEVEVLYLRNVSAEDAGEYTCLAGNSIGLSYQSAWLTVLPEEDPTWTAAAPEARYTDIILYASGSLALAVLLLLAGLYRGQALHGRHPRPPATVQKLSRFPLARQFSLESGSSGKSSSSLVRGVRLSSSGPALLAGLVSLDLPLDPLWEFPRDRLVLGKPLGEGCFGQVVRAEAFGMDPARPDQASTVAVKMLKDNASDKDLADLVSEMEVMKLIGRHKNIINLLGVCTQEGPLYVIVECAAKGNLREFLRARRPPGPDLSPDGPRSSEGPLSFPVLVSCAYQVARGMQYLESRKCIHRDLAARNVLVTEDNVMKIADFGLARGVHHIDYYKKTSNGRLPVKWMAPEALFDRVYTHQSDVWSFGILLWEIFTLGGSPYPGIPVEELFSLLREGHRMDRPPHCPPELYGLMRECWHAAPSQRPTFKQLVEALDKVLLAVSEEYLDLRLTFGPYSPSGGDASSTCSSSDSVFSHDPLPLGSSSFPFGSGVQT
- protocol: Kinase assay (mobility shift assay), FGFR4
- Format: biochemical
- test.parameters: compound and enzyme incubated for 60 mins
measured.endpoint: IC50 (nM)

C=CC(=O)Nc1cc(N2CCC(N3CCOCC3)CC2)ccc1Nc1ncc2c(n1)-c1cccnc1N(c1c(Cl)c(OC)cc(OC)c1Cl)C2 : 9.4
C=CC(=O)N[C@H]1CCOC[C@H]1Nc1ncc2c(n1)-c1cc(F)cnc1N(c1c(Cl)c(OC)cc(OC)c1Cl)C2 : 1.8
C=CC(=O)N[C@H]1CCOC[C@H]1Nc1ncc2c(n1)-c1cc(C)cnc1N(c1c(Cl)c(OC)cc(OC)c1Cl)C2 : 1
C=CC(=O)N[C@H]1CCOC[C@H]1Nc1ncc2c(n1)-c1cc(C(F)(F)F)cnc1N(c1c(Cl)c(OC)cc(OC)c1Cl)C2 : 3.6

[I] C=CC(=O)N[C@H]1CCOC[C@H]1Nc1ncc2c(n1)-c1cccnc1N(c1c(Cl)c(OC)cc(OC)c1Cl)C2
[II] C=CC(=O)N[C@H]1CCOC[C@H]1Nc1ncc2c(n1)-c1cc(C)cnc1N(c1cc(OC)cc(OC)c1Cl)C2
[III] C=CC(=O)N[C@H]1CCOC[C@H]1Nc1ncc2c(n1)-c1ccc(C)nc1N(c1c(Cl)c(OC)cc(OC)c1Cl)C2
[IV] C=CC(=O)N[C@H]1CCOC[C@H]1Nc1ncc2c(n1)-c1cc(Cl)cnc1N(c1c(Cl)c(OC)cc(OC)c1Cl)C2
**Q:** Output the entries ranked by IC50 from maximum down to minimum. List the labels, following the order given in the request.
**A:** I, III, II, IV
(I: 10 nM, III: 5.2 nM, II: 2.6 nM, IV: 1.8 nM)

---

- tgt: FGFR1 (Homo sapiens, UniProt P11362)
- Sequence (P11362 22-822): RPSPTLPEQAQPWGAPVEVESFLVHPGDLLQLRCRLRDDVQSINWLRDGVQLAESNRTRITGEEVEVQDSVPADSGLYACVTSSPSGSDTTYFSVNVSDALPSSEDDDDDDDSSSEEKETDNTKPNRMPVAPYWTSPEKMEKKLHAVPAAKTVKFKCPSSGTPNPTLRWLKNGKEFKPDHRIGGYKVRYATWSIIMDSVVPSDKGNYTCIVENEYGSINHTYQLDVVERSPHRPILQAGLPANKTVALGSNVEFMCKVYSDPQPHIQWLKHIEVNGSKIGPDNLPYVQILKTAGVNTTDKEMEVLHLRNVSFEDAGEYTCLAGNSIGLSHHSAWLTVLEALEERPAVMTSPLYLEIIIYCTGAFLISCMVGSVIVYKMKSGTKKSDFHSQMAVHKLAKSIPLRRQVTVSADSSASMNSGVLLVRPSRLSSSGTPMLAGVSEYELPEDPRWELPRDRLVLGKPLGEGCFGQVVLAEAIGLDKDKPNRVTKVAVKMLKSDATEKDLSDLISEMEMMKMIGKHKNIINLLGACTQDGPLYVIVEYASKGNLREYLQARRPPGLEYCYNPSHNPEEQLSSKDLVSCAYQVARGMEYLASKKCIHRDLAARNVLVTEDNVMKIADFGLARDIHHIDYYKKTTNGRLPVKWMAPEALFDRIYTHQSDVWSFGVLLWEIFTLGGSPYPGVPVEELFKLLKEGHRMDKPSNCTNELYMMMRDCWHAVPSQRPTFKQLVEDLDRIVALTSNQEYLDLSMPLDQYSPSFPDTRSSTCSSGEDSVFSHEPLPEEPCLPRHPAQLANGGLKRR
- protocol: Kinase assay (mobility shift assay), FGFR1
- Type: biochemical
- test.parameters: compound and enzyme incubated for 60 mins
measured.endpoint: IC50 (nM)

Example results:
C=CC(=O)N[C@H]1CCOC[C@H]1Nc1ncc2cc(-c3c(Cl)c(OC)cc(OC)c3Cl)ccc2n1 [BLU554, reference compound] : 1480
C=CC(=O)N[C@H]1CCOC[C@H]1Nc1ncc2c(n1)-c1cc(C)cnc1N(c1cc(OC)cc(OC)c1Cl)C2 : 1440
C=CC(=O)N[C@H]1CCOC[C@H]1Nc1ncc2c(n1)-c1cc(Cl)cnc1N(c1c(Cl)c(OC)cc(OC)c1Cl)C2 : 741
C=CC(=O)N[C@H]1CCOC[C@H]1Nc1ncc2c(n1)-c1cc(C(F)(F)F)cnc1N(c1c(Cl)c(OC)cc(OC)c1Cl)C2 : 166
C=CC(=O)N[C@H]1CCOC[C@H]1Nc1ncc2c(n1)-c1cccnc1N(c1c(Cl)c(OC)cc(OC)c1Cl)C2 : 912

[P] C=CC(=O)N[C@H]1CCOC[C@H]1Nc1ncc2c(n1)-c1ccc(C)nc1N(c1c(Cl)c(OC)cc(OC)c1Cl)C2
[Q] C=CC(=O)N[C@H]1CCOC[C@H]1Nc1ncc2c(n1)-c1cc(F)cnc1N(c1c(Cl)c(OC)cc(OC)c1Cl)C2
**Q:** Please indicate which entry, P or Q , has the lower recorded IC50 value. Could you answer with the label of the item you picked?
**A:** P
